test system: Klebsiella pneumoniae; conditions: Concentration 20 uM; ASSAY_TEST Inhibition of Bacterial Growth; detection method Absorption (OD600); MEDIA CAMHB; plate type 384well; NBS; CORNING #3640; time 18 hr
Description: Antibacterial activity against Klebsiella pneumoniae MDR ATCC 70063 (CO-ADD:GN_003); MIC in CAMBH media using NBS plates, by OD(600)
Measured potencies and affinities stand elsewhere.
Observation type: Inhibition
Note to self: number, then unit, no commentary.

INSERT INTO assay_data (molecule, reported_result) VALUES
  ('CC(=O)N1C(=O)C2(NCC(C)N2)c2ccccc21 (stereo not given)', '10.18%');

List the reported Inhibition of each molecule below.
1. O=C1NC(=O)C(Cc2ccccc2)(c2cccnc2)N1 (stereo not given)
2. CCOC(=O)N1CCc2cc(OC)c(OC)c3c2c1cc1cc(OC)c(OC)cc13
3. COc1ccc([N+](=O)[O-])cc1NS(=O)(=O)c1ccc(C)cc1
4. C#CCSc1nnnn1-c1ccc(Br)c(C)c1

(A)
9.85%
9.85%
9.82%
10.23%
